pIC50: −log10 of the molar value.
For Dipeptidyl peptidase 8 (Homo sapiens, UniProt Q6V1X1), measured pIC50 is reported for the entries below.

-- ask # value lookup — system Dipeptidyl peptidase 8 (Homo sapiens, UniProt Q6V1X1), readout pIC50, item N[C@H]1CN(c2cc(N3CCC(F)(F)C3)ncn2)C[C@@H]1N1CCCCC1=O
-- reply < 4.52

-- ask # value lookup — system Dipeptidyl peptidase 8 (Homo sapiens, UniProt Q6V1X1), readout pIC50, item N[C@H]1CN(c2cc(N3CCC(F)(F)C3)ncn2)C[C@@H]1N1CC(F)(F)CCC1=O
-- reply < 4.52

Note: attention shifts to another entry.
-- ask # value lookup — system Dipeptidyl peptidase 8 (Homo sapiens, UniProt Q6V1X1), readout pIC50, item Cc1nc(N2C[C@H](N)[C@@H](N3CC(F)(F)CCC3=O)C2)cc(N2CCC(F)(F)C2)n1
-- reply < 4.52
